Tested on: Radical scavenging activity
experiment summary: Antioxidant activity assessed as DPPH radical scavenging activity after 30 mins by microplate reader
Format: functional
test conditions: read-out: IC50
property measured: log10 IC50 (log10 of the value in µM)
Hi team, quick reminder: these entries are log10 of IC50 (µM).

Read off the recorded log10 IC50 for "C[C@@H]1O[C@@H](OC[C@H]2O[C@@H](Oc3c(-c4ccc(O)c(O)c4)oc4cc(O)cc(O)c4c3=O)[C@H](O)[C@@H](O)[C@@H]2O)[C@H](O)[C@H](O)[C@H]1O"
1.59

Read off the recorded log10 IC50 for "O=C(/C=C/c1ccc(O)c(O)c1)O[C@@H]1[C@H](O)C[C@@](O)(C(=O)O)C[C@H]1OC(=O)/C=C/c1ccc(O)c(O)c1"
1.46

Read off the recorded log10 IC50 for "C=CCc1ccc(O[C@@H]2O[C@H](CO)[C@@H](O)[C@H](O)[C@H]2O)c(OC)c1"
2.52

Read off the recorded log10 IC50 for "O=C(/C=C/c1ccc(O)c(O)c1)O[C@@H]1C[C@](O)(C(=O)O)C[C@@H](O)[C@H]1O"
1.66

Read off the recorded log10 IC50 for "O=c1c(O[C@@H]2O[C@H](CO)[C@@H](O)[C@H](O)[C@H]2O)c(-c2ccc(O)c(O)c2)oc2cc(O)cc(O)c12"
1.78

Read off the recorded log10 IC50 for "OC[C@H]1O[C@@H](OCc2ccccc2)[C@H](O)[C@@H](O)[C@@H]1O"
2.35

Read off the recorded log10 IC50 for O=C(O)[C@H]1O[C@@H](Oc2c(-c3ccc(O)c(O)c3)oc3cc(O)cc(O)c3c2=O)[C@H](O)[C@@H](O)[C@@H]1O [QUERCETIN GLUCURONIDE]
1.57

Read off the recorded log10 IC50 for Cc1c(C)c2c(c(C)c1O)CCC(C)(C(=O)O)O2 (stereo not drawn)
1.41

----------
Tested on: Radical scavenging activity
experiment summary: Antioxidant activity assessed as DPPH radical scavenging activity after 30 mins by microplate reader
Assay type: functional
test conditions: read-out: IC50
property measured: IC50
Quick note: unit goes after the number.

Field: example entries. Status: answers known.
| compound | system | IC50 |
| --- | --- | --- |
| COc1cc(/C=C/C(=O)O)ccc1O [FERULATE] | Radical scavenging activity | 62.4 µM |
| COc1cc([C@H]2Oc3c(OC)cc(CCCO)cc3[C@@H]2CO[C@@H]2O[C@H](CO)[C@@H](O)[C@H](O)[C@H]2O)ccc1O | Radical scavenging activity | 284 µM |
| O=C(/C=C/c1ccc(O)c(O)c1)O[C@@H]1C[C@](O)(C(=O)O)C[C@@H](OC(=O)/C=C/c2ccc(O)c(O)c2)[C@H]1O | Radical scavenging activity | 32.4 µM |

Please turn your attention to the following entry.
Look up and report measured IC50 (Radical scavenging activity) for the following compound: "O=C(/C=C/c1ccc(O)cc1)O[C@@H]1C[C@](O)(C(=O)O)C[C@@H](OC(=O)/C=C/c2ccc(O)c(O)c2)[C@H]1O"
57.4 µM
